- method: Aqueous solubility of the compound in simulated gastric fluid at pH 1.5
- Assay type: ADME
- particulars: simulated gi fluid
assay_metric: solubility

Examples with answers:
CCCS(=O)(=O)Nc1ccc(F)c(C(=O)c2c[nH]c3ncc(-c4ccc(OCCCN5CCCC5)nc4)cc23)c1F | Insoluble
CCCS(=O)(=O)Nc1ccc(F)c(C(=O)c2c[nH]c3ncc(-c4cnc(C)nc4)cc23)c1F | Soluble
CCCS(=O)(=O)Nc1ccc(F)c(C(=O)c2c[nH]c3ncc(-c4ccc(S(N)(=O)=O)cc4)cc23)c1F | Insoluble
CCCS(=O)(=O)Nc1ccc(F)c(C(=O)c2c[nH]c3ncc(-c4ccc(OCCN5CCCC5)nc4)cc23)c1F | Insoluble
Cc1cnc2[nH]cc(C(=O)c3c(F)ccc(NS(=O)(=O)c4c(F)cccc4F)c3F)c2c1 | Soluble

What value of solubility has been reported for the following compound? CCCS(=O)(=O)Nc1ccc(F)c(C(=O)c2c[nH]c3ncc(-c4ccc(S(=O)(=O)N(C)C)cc4)cc23)c1F
Insoluble

Query: solubility; subject: N#Cc1cnc2[nH]cc(C(=O)c3cccc(NS(=O)(=O)c4cc(F)ccc4F)c3F)c2c1
Insoluble

May I ask what solubility has been recorded for N#Cc1ccnc2[nH]cc(C(=O)c3c(F)ccc(NS(=O)(=O)c4ccccc4F)c3F)c12 ?
Soluble

Tell me the measured solubility of CCCS(=O)(=O)Nc1ccc(F)c(C(=O)c2c[nH]c3ncc(-c4ccc(C#CCN(CC)CC)nc4)cc23)c1F , please.
Insoluble

----------
- method: Aqueous solubility of the compound in simulated intestinal fluid at pH 6.8
- Assay type: ADME
- particulars: simulated gi fluid
assay_metric: solubility

Solved entries:
N#Cc1cnc2[nH]cc(C(=O)c3cccc(NS(=O)(=O)c4cc(F)ccc4F)c3F)c2c1 | Soluble
COc1ncc(-c2cnc3[nH]cc(C(=O)c4c(F)ccc(NS(=O)(=O)c5cc(F)ccc5F)c4F)c3c2)cn1 | Insoluble
N#Cc1cnc2[nH]cc(C(=O)c3cccc(NS(=O)(=O)c4ccccc4F)c3F)c2c1 | Soluble
O=C(c1c(F)ccc(NS(=O)(=O)c2cc(F)ccc2F)c1F)c1c[nH]c2ncc(Cl)cc12 | Soluble
CCCS(=O)(=O)Nc1ccc(F)c(C(=O)c2c[nH]c3ncc(-c4ccc(S(=O)(=O)N5CCOCC5)cc4)cc23)c1F | Insoluble

Query (compound): CCCS(=O)(=O)Nc1ccc(F)c(C(=O)c2c[nH]c3ncc(-c4ccc(S(N)(=O)=O)cc4)cc23)c1F ; field requested: solubility
Insoluble

Any idea what its solubility is? The compound is CCCS(=O)(=O)Nc1ccc(F)c(C(=O)c2c[nH]c3ncc(-c4ccc(C(=O)NC5CC5)nc4)cc23)c1F
Insoluble

Please look up its solubility: O=C(c1c(F)ccc(NS(=O)(=O)c2cc(F)ccc2F)c1F)c1c[nH]c2nccc(Cl)c12
Soluble

----------
- method: Aqueous solubility of the compound in simulated intestinal fluid at pH 4.5
- Assay type: ADME
- particulars: simulated gi fluid
assay_metric: solubility

Sample records with solubility:
Cc1cnc2[nH]cc(C(=O)c3c(F)ccc(NS(=O)(=O)c4c(F)cccc4F)c3F)c2c1 | Insoluble
COc1ccnc2[nH]cc(C(=O)c3c(F)ccc(NS(=O)(=O)c4ccccc4F)c3F)c12 | Soluble
N#Cc1cnc2[nH]cc(C(=O)c3cccc(NS(=O)(=O)c4ccccc4F)c3F)c2c1 | Soluble
N#Cc1cnc2[nH]cc(C(=O)c3cccc(NS(=O)(=O)c4cccnc4)c3F)c2c1 | Soluble
COc1ncc(-c2cnc3[nH]cc(C(=O)c4c(F)ccc(NS(=O)(=O)c5cc(F)ccc5F)c4F)c3c2)cn1 | Insoluble

Recorded solubility for O=C(c1c(F)ccc(NS(=O)(=O)c2cccnc2)c1F)c1c[nH]c2ncc(Cl)cc12 , please?
Soluble

Reported solubility for CCCS(=O)(=O)Nc1ccc(F)c(C(=O)c2c[nH]c3ncc(-c4cnn(CCN5CCOCC5)c4)cc23)c1F : what is it?
Soluble

Recorded solubility of COc1ncc(-c2cnc3[nH]cc(C(=O)c4c(F)ccc(NS(=O)(=O)c5ccccc5F)c4F)c3c2)cn1 , please.
Insoluble

Given the molecule COc1ccnc2[nH]cc(C(=O)c3c(F)ccc(NS(=O)(=O)c4cc(F)ccc4F)c3F)c12 , what is its reported solubility?
Soluble

Which solubility value is on record for CCCS(=O)(=O)Nc1ccc(F)c(C(=O)c2c[nH]c3ncc(-c4ccc(N5CCCC5)nc4)cc23)c1F ?
Insoluble
